- method.summary: yeast display, Sf9 membrane polyspecificity reagent, FACS + sequencing; frameworks hold sequencing errors
measurement.name: polyreactivity (PSR sort gate)

| ordered.residues | polyreactivity (PSR sort gate) |
| --- | --- |
| QVQLVESGGGLVHAGGSLRLSCAASGRIFVGYYAMGWYRQAPGKERELVAAITIGGRTYYADSVKGRFTISRDNAKKTVYLQMKSLKPEDTAVYYCAASKYSRAYQEFGYWGQGTQVTVSS | high polyreactivity |
| QDQLVETGGGLVQAGCSLRLSCAASGSIFTGYTMGWYRQAPGNEREFVAAIRATGGSTYYADSVKGRFTISRDNAKNTVYLQMNSLKPEDTAVFYCAVRSGGGSVRKRYGYWGQGTQVTVSS | high polyreactivity |
| QVQLVDSGGGLVQAGGSLRLSCAASGSIFRYNAMGWYREAPGKERVLVAAISWNGARTYYADSVKGRFTISRDNAKNTVYLQMNSLKPEDTAVYYCNAGTFTRRRGLDYWGQGTQVTGSS | low polyreactivity |
| QVQLVESGGGLVQAGGSLRLSCAASGGIFSVYGMGWYRQAPGKERELVAVIRRGGSTYYADSVKGRFTISRDNAKNTVYLQMNSLKPEDTAVYYCATDYPGYFVDGNYYWGQGTQVTVSS | low polyreactivity |
| QVQLVESGGGLVQAGGSLRLSCAASGSIDGRYAMGWYRQAPGKERELVAVITSGGSTNYADSVKGRFTISRDNAKNTVYLQMKSLKPEDTAVYYCAVRPYALHRLADQPGGDDYWGQGTQVTVSS | low polyreactivity |
| QVQLVESGGGLVQAGGSLRLSCAASGRTFGDYAMGGYRPAPGKESELVAAISRRGGNTYYADSVKGRFTISRDNAKNTVYLQMNSLKPDDTAVYDCAAVAYALGFASKEDYWGQGTQVTGSS | high polyreactivity |
| QVQLVESGGGLVQAGGSLRLSCAASGSTFGGNAMGWYRQAPGKERELVAAITVGGDSTYYADSVKGRFTISRDNAKNTVYLQMNSLKPEDTAVYYCAARHYWWYDYWGQGTQVTVSS | low polyreactivity |
| QVQLVESGGGLVQAGGSLRLTCAASVSTFSRYAMGWYRQAPGKERELVAAISWRGGRTYYADSVKGRFTISRDNAKNTVYLQMNSLKPEDTAVYYCNAVSSFTSPRYDYWGQGTQVTVSS | high polyreactivity |

Find the recorded polyreactivity (PSR sort gate) belonging to QVQLVDSGGGLVQAGGSLRLSCAASGRTSYYNTMGWYRQAPGKERELVAAITGRGDSTYYADSVKGRFTISRDNAKNTVYLQMNSLKPEDTAVYYCAADELHLLYRVSKFVDYNHWGQGTQVTVSS and report it.
low polyreactivity

Field entry: QVQLVESGGGLVQAGGSLRLTCAASASIFGHNTMGWNREAPGKERELVAAISVSGTRTYYADSVKGRFTISRVNAKNTVYLQMNSLKPEDTAVYYCAAEISRVRQGVAWSYKYEYWGQGTQVTVSS
high polyreactivity

Field entry: QVQLVETVGGLVQAGGSLRLSCAASGSTFYRYAMGWYRQAPGKERELVAAISSSGGSTYYADSVKGRFTISRDNAKNSVYLQMNSLKPEDSAVYYCNAARNFRYDYWGQGTQVTVSS
high polyreactivity

###

- method.summary: yeast display, Sf9 membrane polyspecificity reagent, FACS + sequencing; frameworks hold sequencing errors

| ordered.residues | polyreactivity (PSR sort gate) |
| --- | --- |
| QDQLVESGGGLVQAGGSLRLSCAASGFTFTRNAMGWYRQAPGKEREFVAAISVGGGRTYYADSVKGRFTISRDNAKNTVYLQMNSLKPEDTAVYYCNAYQGWRYDYWGPGTQVTVSS | high polyreactivity |
| QVQLVESGGGLVQAGGSLRLSCAASGITFSSYAMGWYRQAPGKEMELVAAISYGGGNTYYADSVKGRFTISRDNAKNTVYLQMNSLKPEDTSVYYCNTLYTSYSGLDYWGQGTQVTVSS | high polyreactivity |
| QVQLVESGGGLVQAGGSLRLSCAGSGRIFARNVMGWYGQAPGKVRELVAAISRSGGSTYYADSVKGRFTISRDNAKNTVYLQMNSLKPEDTAFYYCNAYYPIRSSPYGYYYWGQGTQVTVSS | high polyreactivity |

###

- method.summary: yeast display, Sf9 membrane polyspecificity reagent, FACS + sequencing; frameworks hold sequencing errors
measurement.name: polyreactivity (PSR sort gate)

Please review the entries below; each comes with its answer.
| ordered.residues | result |
| --- | --- |
| QVQLVESRGGLVQAGGSLRLSCAASGRIFNVYAMGWYRQAPGKERELVAGISGSGGRTYYADSVKGRFTISRDNAKNTVYLQMNSLKPEDTAVYYCNTVRHYSSWGQGTQVTVSS | high polyreactivity |
| QVQLVESGGGLVQAGGSLRLSCAASGITFTSYAMGWYRQAPGKERELVAAISSSGVRTYYADSVKGRFTISRDNAKNTVYLQMNSLKPEDTAVYYCATRRRVLYGYDYWGQGTQVTVSS | high polyreactivity |
| QVQLVESVGGLDQAGGTLRLSCAASALIFAYYAMGGYRQAPGKERELVAAITSSGTSTYYADSVKGRFTISRDNAKNTVYLQMNSLTPEDTAVYYCAASDRRLTGVGADEYWGQGTQVTVSS | high polyreactivity |
| QVQLVESGGGLVQAGGSLRLSCAASGSIFRVNTMGWYRQAPGKERELVAGITSRGGSTYYADSVKGRFTISRDNAKNTVYLQMNSLKPEDTAFYYCANRAYGTALYRGYGYWGQGTQVPVSS | low polyreactivity |
| QVQLVESGGGLVQAGGSLRLSCAASGSIFGRNDMGWYRQAPGKERELVARITRGGSTNYADSVKGRFTISRDNAKNTVYLQMNSLKPEDTAVYYCAAGARQYRGVPDRYGYWGQGTQVTVSS | low polyreactivity |

Find the recorded polyreactivity (PSR sort gate) belonging to QVQLVESGGGLVQAGGSLRLSCAASGLIFSYYAMGWYRQAPGKERELVAAITGSGGTTYYADSVMGRFTISRDNANNTVYLQMNSLKPEDTAVYYCATPPPEVWQRWYREYDYWGQGTQVTVSS and report it.
low polyreactivity

Field entry: QVQLEESGGGVVQAGGSLRLTCAASASTSYNMGWYTQAPGKERELVAAISYPGGRTYYADSVKGRFTISRDNAKNTVYLQMTCLKPDDTGVYYCAKRIFVTFDSWGQGTQVTVSS
low polyreactivity

Field entry: QVHLVESGGGLVQPGGSLRLSCAASGSTFQTYAMVWYRQAPGKERELVAAITSGGSTNYADSVKGRFTISRDNAKNTVYLQMNSVYPEVTAVYFCAVRQIYQTSDHRLQYDYWGQGTQVTVSS
low polyreactivity

Field entry: QVQLVESGGCLVQAGGSLRLSCSTSGSTFAVYVMGWSRQAPGKERELVAAISTSGARTYYADSVKGRFTISRDNAKNTDYLQMNSLKPEDTAVYYCAARGIYKSKYDYWGQGTQVSVSS
high polyreactivity

Field entry: QVQLQESGGGLLQAGGCLSCTASGTILVQGDMGWYRHAPGKERELVATINDGASTYYADSVKGRFTISRDKAKNTVYLQKNSLKPDDTAVYYCAVFTDITTYFGYWGQGTQVTVSS
low polyreactivity

###

- method.summary: yeast display, Sf9 membrane polyspecificity reagent, FACS + sequencing; frameworks hold sequencing errors
measurement.name: polyreactivity (PSR sort gate)

Please review the entries below; each comes with its answer.
| ordered.residues | polyreactivity (PSR sort gate) |
| --- | --- |
| QVQLVESGGGLVQAGGSLRLSCAASGSIFYDYVMGWYRQAPGKERELVAAITRGGRTYYADSVKGRFTISRDNAKNTVYLQMNSLKPEDTAVYYCNAGRHQGYDWGQGTQVTVSS | high polyreactivity |
| QVQLVESGGGLVQAGGRLRLSCAASGLIIEWYAMGWFRQAPGKERELVAAITGRGSSTFYADSVKGRFTISRDNAKNTVYLQMNSLKPEDTGVYYCAVATVKQYRSDYWGQGTQVTVSS | low polyreactivity |
| QVQLVESGGGLVQAGGSLRLSCAASGSIVYANTMGRYRQAPGKERELVAAIRSVGRTYYADSVKGRFTISRDNAKNTVYLQMNSLKPADTAVYYCAADPRSYFTSEYWGQGTQVTVSS | low polyreactivity |
| QVQLVESGGGLVQAGGSLRLSCAASGSTFTGNAMGWYRQAPGKERELVASIRSGATTYYADSVKGRFTISRDNAKNTVYLQMNSLKPEDTAVYYCAKRYLGRRGDVYYWGQGTQVTVSS | high polyreactivity |

Okay, now this sequence:
Find the recorded polyreactivity (PSR sort gate) belonging to QVQLVESGGGLVQAGGSLRLSCAASGFTFFGDYAMGWYRQAPGKERELVAAIDWSGGTTYYADSVKGRFTISRDNAKNTVYLQMNSLKPEDTAVYYCAKDYYSDGIYYEYWGQGTQVTVSS and report it.
high polyreactivity
